tested on: LXFL 529; experiment: NCI tumour cell line growth inhibition, 48 h
Calls of active or inactive are those of the source. Cut-off read from the data, not from the text of the source: active = GI50 up to about 1.1 µM and inactive = higher.
endpointName: GI50

# annotated cases, reported GI50 shown
[
  {
    "compound": "O=C1N=C2Sc3ccc4ccccc4c3N2C1=O",
    "assayTarget": "LXFL 529",
    "GI50": "18.7 µM (inactive)"
  },
  {
    "compound": "O=C1C2C(C(=O)N1c1ccccc1)C1(Br)c3ccccc3C2(Br)C2C(=O)N(c3ccccc3)C(=O)C21 (centres undefined)",
    "assayTarget": "LXFL 529",
    "GI50": "7.62 µM (inactive)"
  },
  {
    "compound": "COc1ccc(NC(=O)CC(=O)n2nc(-c3ccccc3)c(/N=N/c3ccc(C)cc3)c2-c2ccccc2)cc1",
    "assayTarget": "LXFL 529",
    "GI50": "40.8 µM (inactive)"
  }
]

Under LXFL 529: GI50 value of CCOc1ccc(/C=C(\Cl)c2ccc(OC)c(OC)c2)cc1 ?
35.9 µM (inactive)

Provide value of GI50 for this record tested with LXFL 529: CC(C)(C)C1CCC(CI)(N=[N+]=[N-])CC1 (centres undefined)
> 100 µM (inactive)

Lab note: need GI50 with LXFL 529 for entry COC(=O)/C(=N\N)C(C(=O)C(=O)Nc1nnc(S)[nH]1)c1nc2ccc([N+](=O)[O-])cc2nc1O (centres undefined) , please look it up.
> 100 µM (inactive)

// fetch LXFL 529 GI50 for COc1ccc2c(c1)C1C(CO2)C(c2ccccc2)=NN1c1ccccc1 (centres undefined)
> 100 µM (inactive)

What GI50 appears in the records for this compound with LXFL 529? C[C@]12CCC(=O)C=C1CC[C@@H]1[C@@H]2[C@@H](O)C[C@@]2(C)[C@H]1CC[C@]2(O)C(=O)COC(=O)CCC1CCCC1 [HYDROCORTISONE CYPIONATE]
> 100 µM (inactive)

Request - read-out GI50 | tested on LXFL 529 | compound CCCNC1=C(C(=O)OCC)C(=O)CO1
> 100 µM (inactive)

Which GI50 is reported with LXFL 529 for this entry: O=C1OC2C=CC1C1(CCOC1=O)C2 (centres undefined) ?
> 100 µM (inactive)

====

Listed compounds paired with reported GI50
system: SNB-75; experiment: NCI tumour cell line growth inhibition, 48 h
The source made the active and inactive calls. No stated cut-off is given here; in the data, active = GI50 up to about 1.1 µM and inactive = higher.

[
  {
    "compound": "Clc1ccc2c(NCCNC3CCCCC3)ccnc2c1",
    "GI50": "4.63 µM (inactive)"
  },
  {
    "compound": "COc1ccc2cc(/C=N\\NC(=O)Nc3ccc([N+](=O)[O-])cc3)ccc2c1",
    "GI50": "13.2 µM (inactive)"
  }
]

Consider the compound shown here: c1ccc(SC(CCCCC(Sc2ccccc2)Sc2ccccc2)Sc2ccccc2)cc1 What is its recorded GI50?
> 100 µM (inactive)

Dear colleague, I am looking for the recorded GI50 of the following compound: CCOn1cc(C[C@@]2(O)C(=O)OC3[C@@H](O)CO[C@@]32O)c2ccccc21 (stereo not given in full)
> 100 µM (inactive)

Query: GI50; subject: COc1cc2c(c3oc(-c4ccc5c(c4)OCO5)c(O)c(=O)c13)CCC(C)(C)O2
12.3 µM (inactive)

State the recorded GI50 for this entry: CCCCOCn1c(=O)[nH]c(=O)c2cc(Br)ccc21
39.7 µM (inactive)

What measured GI50 goes with O=[As](O)(O)c1ccc(NCc2ccccc2)cc1 ?
> 100 µM (inactive)

Quick one: GI50 of COc1cc(/C=N/n2c(Cc3ccc(Cl)cc3)n[nH]c2=O)cc(OC)c1OC ?
65.2 µM (inactive)

Looking for the measured GI50 of N#CC(C(=O)/C(=N\NC(N)=O)C(C#N)c1ccccc1)c1ccccc1 (stereo not given) , can you help?
> 100 µM (inactive)

Look up GI50: COC(=O)C(COC(=O)/C=C/c1ccc(OC(C)=O)c(OC(C)=O)c1)NC(=O)/C=C/c1ccc(OC(C)=O)c(OC(C)=O)c1 (stereo not given)
29.9 µM (inactive)

====

tested on: CCRF-CEM; experiment: NCI tumour cell line growth inhibition, 48 h
Calls of active or inactive are those of the source. Rule as the data show it: active = GI50 up to about 1.1 µM and inactive = higher.
endpointName: GI50

Consider the following illustrative entries.
[
  {
    "compound": "C[C@]12CCC(O)CC1=CC[C@@H]1[C@@H]2CC[C@]2(C)C(O)[C@H](n3ccnc3)C[C@@H]12 (stereo partly drawn)",
    "endpointResult": "17.9 µM (inactive)"
  },
  {
    "compound": "CC(NC(=O)c1ccccc1)NC(=O)C(C)C(=O)Nc1ccccc1 (stereo not drawn)",
    "endpointResult": "> 100 µM (inactive)"
  },
  {
    "compound": "O=C1[C@H]2ON(c3ccccc3)C(c3ccc([N+](=O)[O-])cc3)[C@H]2C(=O)N1c1ccc(Cc2ccc(N3C(=O)[C@@H]4ON(c5ccccc5)C(c5ccc([N+](=O)[O-])cc5)[C@@H]4C3=O)cc2)cc1 (stereo partly drawn)",
    "endpointResult": "> 100 µM (inactive)"
  },
  {
    "compound": "CC(=O)OC1CC2C(C)(C)C(=O)C=C[C@]2(C)C2CCC3(C)C(=CC(=O)C3c3ccoc3)[C@]12C (stereo partly drawn)",
    "endpointResult": "8.47 µM (inactive)"
  },
  {
    "compound": "OC1(c2ccc3ccccc3c2)c2ccc3ccccc3c2C2=NCCN21 (stereo not drawn)",
    "endpointResult": "> 100 µM (inactive)"
  },
  {
    "compound": "O=[N+]([O-])c1ccc(C2CC(c3ccccc3Cl)=Nc3ccccc3S2)cc1 (stereo not drawn)",
    "endpointResult": "2.07 µM (inactive)"
  },
  {
    "compound": "CN1CCc2ccccc2C1Cc1ccccc1NC(=O)c1sc2ccccc2c1Cl (stereo not drawn)",
    "endpointResult": "50.9 µM (inactive)"
  },
  {
    "compound": "C(=N\\c1cc2cc(Sc3ccccc3)ccc2[nH]1)/c1ccccc1",
    "endpointResult": "> 12.5 µM (inactive)"
  },
  {
    "compound": "CN1CCN(C(=S)N(C(=O)c2cccs2)C2CCCCC2)CC1",
    "endpointResult": "> 10 µM (inactive)"
  },
  {
    "compound": "COC(=O)/C(=N\\NC(C)(C)C)C(C(=O)C(=O)Nc1cc(C)ccc1C)c1nc2ccccc2nc1O (stereo not drawn)",
    "endpointResult": "> 100 µM (inactive)"
  }
]

State the recorded GI50 for this entry: CC(NC(=O)OC(C)(C)C)C(=O)C(N)=O (stereo not drawn)
> 100 µM (inactive)

====

Each item that follows carries a reported GI50.
system: HCT-15

[
  {
    "compound": "CC(=O)O[C@@H]1[C@H](C(C)C)[C@@H](OC(C)=O)C/C(C)=C/CC[C@]2(C)O[C@@H]12",
    "endpointResult": "> 100 µM"
  },
  {
    "compound": "Cc1ccc(S(=O)(=O)N/N=C2/C3CC4CCC2C4C3)cc1 (stereo not drawn)",
    "endpointResult": "> 100 µM"
  }
]

Could you share which GI50 value was measured for COc1cc2c(cc1OC)C1Cc3ccccc3CCN1CC2 (stereo not drawn) ?
> 100 µM

====

system: NCI-H226; test: NCI tumour cell line growth inhibition, 48 h
The source made the active and inactive calls. No stated cut-off is given here; in the data, active = GI50 up to about 1.1 µM and inactive = higher.
Valid outcomes are listed here; reply with one: class 1 for active, class 0 for inactive

[
  {
    "compound": "CCCCCCCCCCCCCCCCCCOCC(CO[PH](=O)O)OCCCCCCCCCCCCCCCCCC (configuration not stated)",
    "className": "class 0"
  },
  {
    "compound": "O=C1C(/N=N/c2ccc(-c3nc4ccccc4[nH]3)cc2)NC(=S)N1c1ccccc1 (configuration not stated)",
    "className": "class 0"
  },
  {
    "compound": "C=C1CC2(CCOc3ccc(Cl)cc32)OC1=O (configuration not stated)",
    "className": "class 0"
  },
  {
    "compound": "COc1cc2c(c(OC)c1OC)-c1ccc(SC)c(=O)cc1[C@@H](NCc1cccc([N+](=O)[O-])c1)CC2",
    "className": "class 1"
  },
  {
    "compound": "C[N+](C)(N)Cc1nc(-c2ccc(Cl)cc2)no1",
    "className": "class 0"
  },
  {
    "compound": "COc1ccc(/C=C/C(=O)c2sc(-n3nc(-c4ccccc4)cc3-c3ccccc3)nc2C)cc1OC",
    "className": "class 0"
  }
]

Kindly provide the recorded test outcome for the following compound: CN(C)CCN1C(=O)c2cccc3cc([N+](=O)[O-])cc(c23)C1=O [MITONAFIDE]
class 1

====

Quick reference: GI50 of the listed items.
test system: A498; assay: NCI tumour cell line growth inhibition, 48 h
Activity calls are given as the source filed them. Rule as the data show it: active = GI50 up to about 1.1 µM and inactive = higher.

[
  {
    "compound": "CCC1C(NC(=O)OC)C(=O)N1[C@@H](C)c1ccccc1 (some centres not stated)",
    "assayTarget": "A498",
    "endpointName": "GI50",
    "endpointResult": "> 100 µM (inactive)"
  }
]

Name the recorded GI50 for COC(=O)c1c(CC(Cc2ccc3c(c2)CCCC3)C(=O)O)ccc2c1CCCC2 (configuration not stated) .
25 µM (inactive)

Report GI50 for Nc1ccccc1C(=O)C(Br)C(Br)c1ccc2c(c1)OCO2 (configuration not stated) please.
24.4 µM (inactive)

Need GI50 of COc1ccc(C(=C(Cl)c2ccccc2)c2ccc(OC)cc2)cc1 , thanks.
> 100 µM (inactive)
